Data origin: patent US20230235090A1

Items are presented alongside their recorded pEC50.
- MEASURED TARGET: T1, cynomolgus monkey 4-1BB (cynomolgus monkey)
- T1 construct: whole, on cells; also called CHO-K1-cyno 4-1BB; CHO-K1/cyno4-1BB
- TEST PROTOCOL: FACS, CHO-K1/cyno 4-1BB cells [F]
Field pEC50 (float): negative decimal logarithm of the concentration in molar.

Below are worked cases with known answers.
BINDER	pEC50
PR001842 (antibody, human IgG1, V domains shown, anti-4-1BB HCAb, human IgG1 Fc) VH: EVQLLESGGGLVQPGGSLRLSCAASGFTFSSYAMSWGRQAPGKGLEWVSAISGSGGSTYYADSVKGRFTISRDNSKNTLYLHMNSLRAEDTAVYYCAKEKVATTGDYYYDMDVWGQGTTVTVSS	8.64
Utomilumab analog (PR000483) (antibody, human IgG2, lambda, V domains shown, anti-4-1BB control antibody; also called Tab) VH: EVQLVQSGAEVKKPGESLRISCKGSGYSFSTYWISWVRQMPGKGLEWMGKIYPGDSYTNYSPSFQGQVTISADKSISTAYLQWSSLKASDTAMYYCARGYGIFDYWGQGTLVTVSS VL: SYELTQPPSVSVSPGQTASITCSGDNIGDQYAHWYQQKPGQSPVLVIYQDKNRPSGIPERFSGSNSGNTATLTISGTQAMDEADYYCATYTGFGSLAVFGGGTKLTVLG	9.31
PR001838 (antibody, human IgG1, V domains shown, anti-4-1BB HCAb, human IgG1 Fc) VH: EVQLLESGGGLVQPGGSLRLSCAASGFTFSNYAMSWFRQPPETGLKWVSSIDGSGGDTYYADSVKGRFTISRDNSKNTLYLQMNSLRAEDTAVYYCAKEGSHGTDDSHYDVDVWGQGTTVTVSS	8.96

Now examine the next entry.
Ask | Entry under review: PR001840 (antibody, human IgG1, V domains shown, anti-4-1BB HCAb, human IgG1 Fc) VH: EVQLVESGGGLVQPGGSLRLSCAASGFTFSSYWMHWVRQAPGKGLVWVSRINSDGSSTSYADSVQGRFTISRDNAKNTLYLQMNSLRAEDTAVYYCVRKGSSSYYHYSIEDDWGQGTLVTVSS . Reported pEC50?
Reply | 8.90
